Tested on: Saccharomyces cerevisiae;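 also: PSI is a weighted mean of sequencing reads over stability bins, variants kept only with over 10 reads, mCherry proximal and sfGFP distal, peptide attached via GGGS linker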
assay-protocol: protein stability index of tFT-peptide fusion (C-terminal peptide) (PSI (0-1 scale)); higher = more stable (slower turnover)
test-parameters: genetic background: wild type; temperature: 30 C
value-type: protein stability index

INSERT INTO measurements (seq_string, tested_on, value_type, value_reported) VALUES
  ('FGGMSGVLFRMV', 'Saccharomyces cerevisiae', 'protein stability index', 0.663),
  ('LPFLFTSFAPAA', 'Saccharomyces cerevisiae', 'protein stability index', 0.776),
  ('TLQLFPRIPSFQ', 'Saccharomyces cerevisiae', 'protein stability index', 0.707),
  ('AFLCVFGFCFFV', 'Saccharomyces cerevisiae', 'protein stability index', 0.339),
  ('KNTRLKKEKVSR', 'Saccharomyces cerevisiae', 'protein stability index', 0.829),
  ('RAKVEQTGQKTV', 'Saccharomyces cerevisiae', 'protein stability index', 0.707),
  ('GRARWVGGEGVW', 'Saccharomyces cerevisiae', 'protein stability index', 0.706),
  ('GRPYHLCLFSCF', 'Saccharomyces cerevisiae', 'protein stability index', 0.353),
  ('NKTKIKKKKKRG', 'Saccharomyces cerevisiae', 'protein stability index', 0.657),
  ('SRRLSLSSLAFP', 'Saccharomyces cerevisiae', 'protein stability index', 0.723),
  ('WGVGRDVVLWGA', 'Saccharomyces cerevisiae', 'protein stability index', 0.895),
  ('PPPPPPPSPPFS', 'Saccharomyces cerevisiae', 'protein stability index', 0.783),
  ('VVISRTPAALES', 'Saccharomyces cerevisiae', 'protein stability index', 0.697),
  ('RGRCGRLSRAGA', 'Saccharomyces cerevisiae', 'protein stability index', 0.727),
  ('VLRSTQGAINRI', 'Saccharomyces cerevisiae', 'protein stability index', 0.717),
  ('RGRGKRNDPEKR', 'Saccharomyces cerevisiae', 'protein stability index', 0.681),
  ('LWERRSRQLTMF', 'Saccharomyces cerevisiae', 'protein stability index', 0.263),
  ('CGLSAGIVLFFC', 'Saccharomyces cerevisiae', 'protein stability index', 0.58),
  ('FCSMLPSHLPEA', 'Saccharomyces cerevisiae', 'protein stability index', 0.697),
  ('PTPPPQPTPHTP', 'Saccharomyces cerevisiae', 'protein stability index', 0.705),
  ('SPSLVVRVSFEF', 'Saccharomyces cerevisiae', 'protein stability index', 0.595),
  ('PPPHHPIMPAKQ', 'Saccharomyces cerevisiae', 'protein stability index', 0.63),
  ('LGHITLSERFGS', 'Saccharomyces cerevisiae', 'protein stability index', 0.705),
  ('DIKAISVKYTIQ', 'Saccharomyces cerevisiae', 'protein stability index', 0.613),
  ('KEKSRNIKKRRK', 'Saccharomyces cerevisiae', 'protein stability index', 0.705),
  ('LPPPPSAPHPSP', 'Saccharomyces cerevisiae', 'protein stability index', 0.668),
  ('PPAFFPHSRPLL', 'Saccharomyces cerevisiae', 'protein stability index', 0.598),
  ('FSMAHLDGGHRR', 'Saccharomyces cerevisiae', 'protein stability index', 0.676),
  ('CSLRVSADPLLT', 'Saccharomyces cerevisiae', 'protein stability index', 0.732),
  ('PPPPPRPRSLLS', 'Saccharomyces cerevisiae', 'protein stability index', 0.711),
  ('GPNWCSVCQGVG', 'Saccharomyces cerevisiae', 'protein stability index', 0.453),
  ('STVSLASPARSP', 'Saccharomyces cerevisiae', 'protein stability index', 0.683),
  ('ISVSGLVVSVGP', 'Saccharomyces cerevisiae', 'protein stability index', 0.649),
  ('RFGGGPCRSVGC', 'Saccharomyces cerevisiae', 'protein stability index', 0.733),
  ('KKEGEREQGVRW', 'Saccharomyces cerevisiae', 'protein stability index', 0.703),
  ('TYRPEMYSRVLT', 'Saccharomyces cerevisiae', 'protein stability index', 0.738),
  ('VLGVDVIQVCPI', 'Saccharomyces cerevisiae', 'protein stability index', 0.682),
  ('RMNSCVLLDGFA', 'Saccharomyces cerevisiae', 'protein stability index', 0.687),
  ('FALYVHHSLSFG', 'Saccharomyces cerevisiae', 'protein stability index', 0.685),
  ('LSFLFFRLCSFF', 'Saccharomyces cerevisiae', 'protein stability index', 0.203),
  ('LYLCFDVVKDLG', 'Saccharomyces cerevisiae', 'protein stability index', 0.582),
  ('VGDGQGWGGQGG', 'Saccharomyces cerevisiae', 'protein stability index', 0.688),
  ('GIKTRTTRVRGE', 'Saccharomyces cerevisiae', 'protein stability index', 0.706),
  ('HRWSRGIDATGV', 'Saccharomyces cerevisiae', 'protein stability index', 0.665),
  ('VSPLRGSRAPFP', 'Saccharomyces cerevisiae', 'protein stability index', 0.744),
  ('LFLFPPVLTFPL', 'Saccharomyces cerevisiae', 'protein stability index', 0.625),
  ('GLSGFLLLIVLY', 'Saccharomyces cerevisiae', 'protein stability index', 0.353),
  ('PSPTLGPVSFPH', 'Saccharomyces cerevisiae', 'protein stability index', 0.703),
  ('RKYKNKRSKKEK', 'Saccharomyces cerevisiae', 'protein stability index', 0.755),
  ('RNIQKLNKIKKK', 'Saccharomyces cerevisiae', 'protein stability index', 0.753),
  ('VSSSFSVLVLLF', 'Saccharomyces cerevisiae', 'protein stability index', 0.421),
  ('VWAWGDGGGAVV', 'Saccharomyces cerevisiae', 'protein stability index', 0.728),
  ('GWWGGCRSGVPE', 'Saccharomyces cerevisiae', 'protein stability index', 0.672),
  ('PPLSPPHRPPHS', 'Saccharomyces cerevisiae', 'protein stability index', 0.71),
  ('GLLRSHYLDRGF', 'Saccharomyces cerevisiae', 'protein stability index', 0.693),
  ('DAKPNMATGLSI', 'Saccharomyces cerevisiae', 'protein stability index', 0.703),
  ('RESIEGGGAPRD', 'Saccharomyces cerevisiae', 'protein stability index', 0.747),
  ('VLGSYFNGIWLF', 'Saccharomyces cerevisiae', 'protein stability index', 0.534),
  ('LLSLALFACSIC', 'Saccharomyces cerevisiae', 'protein stability index', 0.63),
  ('GVSHKKGCPWLG', 'Saccharomyces cerevisiae', 'protein stability index', 0.641),
  ('WGLPVGVESSGG', 'Saccharomyces cerevisiae', 'protein stability index', 0.732),
  ('QEKKKVNKKENK', 'Saccharomyces cerevisiae', 'protein stability index', 0.737),
  ('SLSIHPCHFGPS', 'Saccharomyces cerevisiae', 'protein stability index', 0.671),
  ('DPPHPPPSPLPA', 'Saccharomyces cerevisiae', 'protein stability index', 0.699),
  ('FPLSLSFLSPLV', 'Saccharomyces cerevisiae', 'protein stability index', 0.705),
  ('HRAPACEHDIKK', 'Saccharomyces cerevisiae', 'protein stability index', 0.705),
  ('FSLLPYFPYALP', 'Saccharomyces cerevisiae', 'protein stability index', 0.739),
  ('PLPPAPPSLSPP', 'Saccharomyces cerevisiae', 'protein stability index', 0.651),
  ('GSPMRKHVTLLP', 'Saccharomyces cerevisiae', 'protein stability index', 0.808),
  ('PSVLPPPSPASY', 'Saccharomyces cerevisiae', 'protein stability index', 0.668),
  ('VLNRFENRNSKA', 'Saccharomyces cerevisiae', 'protein stability index', 0.71),
  ('GGHRRQGKKFTP', 'Saccharomyces cerevisiae', 'protein stability index', 0.711),
  ('ASWEARGWLGWA', 'Saccharomyces cerevisiae', 'protein stability index', 0.794),
  ('VKIEVICRVSLI', 'Saccharomyces cerevisiae', 'protein stability index', 0.429),
  ('LGFLRRERLVPS', 'Saccharomyces cerevisiae', 'protein stability index', 0.697),
  ('PPPHASLSHCHS', 'Saccharomyces cerevisiae', 'protein stability index', 0.687),
  ('WTNRVPLYALPT', 'Saccharomyces cerevisiae', 'protein stability index', 0.657),
  ('QLDPLRPASEFA', 'Saccharomyces cerevisiae', 'protein stability index', 0.602),
  ('PPPPPPPPPSTP', 'Saccharomyces cerevisiae', 'protein stability index', 0.744),
  ('LPRVPCRLAPPP', 'Saccharomyces cerevisiae', 'protein stability index', 0.689),
  ('ILWFYSDSPWLS', 'Saccharomyces cerevisiae', 'protein stability index', 0.763),
  ('GESRVGMRRGGR', 'Saccharomyces cerevisiae', 'protein stability index', 0.667);

Ref: the supplement of paper PMC10724198
